Exercise: state measured inhibition at 0.1 µM for each of the molecules provided.
# Test system: KRas-mediated phosphorylation of ERK in H727 cells
# Experimental Details: Inhibition of KRas-mediated phosphorylation of ERK (Cisbio HTRF pERK), H727 cells
# Type: cell-based
# Assay Setup: Homo sapiens, NCI-H727, 3 h, single point, 100 nM compound, 3 hrs, H727 cells
The reply should contain only the number, in %.

[ask] inhibition at 0.1 µM for Oc1cc(-c2ncc3c(N4C[C@@H]5C[C@H](C4)[C@H](O)C5)nc(OC[C@@]45CCCN4C[C@H](F)C5)nc3c2F)c2ccccc2c1F ?
[reply] 1

[ask] What measured inhibition at 0.1 µM goes with CCc1c(F)ccc2cc(O)cc(-c3ncc4c(N5CCn6cc(C(=O)N(C)C)nc6C5)nc(OC[C@@]56CCCN5C[C@H](F)C6)nc4c3F)c12 ?
[reply] -6

[ask] GET /values?readout=inhibition at 0.1 µM&item= CCc1c(F)ccc2cc(O)cc(-c3ncc4c(N5CCC[C@@](C)(O)C5)nc(OC[C@]56CCCN5[C@@H](CNS(=O)(=O)N(C)C)CC6)nc4c3F)c12
[reply] 33

[ask] What measured inhibition at 0.1 µM goes with CCc1c(F)ccc2cc(O)cc(-c3ncc4c(N5CCCc6nnncc6C5)nc(OC[C@@]56CCCN5C[C@H](F)C6)nc4c3F)c12 ?
[reply] -18

[ask] I am curious: what inhibition at 0.1 µM value has been reported for CCc1c(F)ccc2cc(O)cc(-c3ncc4c(NCc5cc(C(=O)N(C)C)nn5C5CCC5O)nc(OC[C@@]56CCCN5C[C@H](F)C6)nc4c3F)c12 (stereo partly shown) ?
[reply] 2

[ask] Which measured inhibition at 0.1 µM value corresponds to C[C@@]1(O)CCCN(c2nc(OCC34CCCN3CCC4)nc3c(F)c(-c4ccc(F)c5sc(N)nc45)ncc23)C1 ?
[reply] -31

[ask] Looking for the measured inhibition at 0.1 µM of CCc1c(F)ccc2cc(O)cc(-c3ncc4c(N5CCC[C@@](C)(O)C5)nc(OCC5(CN(C)C)CC5C)nc4c3F)c12 (stereo partly shown) , can you help?
[reply] 7

[ask] Recorded inhibition at 0.1 µM for CCc1c(F)ccc2cc(O)cc(-c3ncc4c(NCc5cc(C(=O)N(C)C)nn5CC#N)nc(OC[C@@]56CCCN5C[C@H](F)C6)nc4c3F)c12 , please?
[reply] 19

[ask] Dear colleague, I am looking for the recorded inhibition at 0.1 µM of the following molecule: Oc1cc(-c2ncc3c(N4C[C@@H]5C[C@H](C4)[C@H](O)C5)nc(OC[C@@]45CCCN4C[C@H](F)C5)nc3c2F)c2ccccc2c1C(F)(F)F
[reply] -11

[ask] Consider the molecule CCc1c(F)ccc2c(F)c(O)cc(-c3ncc4c(N5C[C@@H]6C[C@H](C5)[C@H](O)C6)nc(OC[C@@]56CCCN5C[C@H](F)C6)nc4c3F)c12 and give its measured inhibition at 0.1 µM.
[reply] 36

[ask] Can you share its inhibition at 0.1 µM? I mean this molecule: CCc1c(F)ccc2cc(O)cc(-c3ncc4c(N5CCC[C@@](C)(O)C5)nc(OCC5(CN(C)C)CC5(C)C)nc4c3F)c12 (stereo partly shown)
[reply] 21

[ask] I am curious: what inhibition at 0.1 µM value has been reported for CCc1c(F)ccc2cc(O)cc(-c3ncc4c(N5CCC(C#N)CC5)nc(OC[C@@]56CCCN5C[C@H](F)C6)nc4c3F)c12 ?
[reply] 30

[ask] Entry under review: Nc1nc2c(-c3ncc4c(N5CCCC6(C5)NC(=O)NC6=O)nc(OCC56CCCN5CCC6)nc4c3F)ccc(F)c2s1 (stereo not shown) . Reported inhibition at 0.1 µM?
[reply] -4

----------
# Target Entity: KRas^G12V (Homo sapiens, UniProt P01116, G12V)
# Construct: Biotinylated KRas (corresponding to amino acids 1-169, produced at Accelegan Inc.); biotin (biotinylated); purchased Accelegan Inc
# Sequence (P01116 1-169 isoform P01116-2 G12V): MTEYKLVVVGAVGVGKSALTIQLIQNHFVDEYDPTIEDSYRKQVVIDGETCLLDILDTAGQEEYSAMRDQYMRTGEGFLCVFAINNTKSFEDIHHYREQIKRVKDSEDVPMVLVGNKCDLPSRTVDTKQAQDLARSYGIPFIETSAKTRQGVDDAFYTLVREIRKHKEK
# Experimental Details: KRas binding assay (TR-FRET tracer displacement), KRas G12V
Reported Property: IC50 (nM)
Provide the reading as a plain figure in nM.

[ask] # IC50 lookup, item CCc1c(F)ccc2cc(O)cc(-c3ncc4c(N5C[C@@H]6[C@@H](CS(N)(=O)=O)NC(=O)[C@@H]6C5)nc(OC[C@@]56CCCN5C[C@H](F)C6)nc4c3F)c12
[reply] 966

[ask] Give its IC50 value. Item: CCc1c(F)ccc2cc(O)cc(-c3ncc4c(NCc5cn(C(=O)N(C)C)nc5NC(=O)C5CC(O)C5)nc(OC[C@@]56CCCN5C[C@H](F)C6)nc4c3F)c12 (stereo partly drawn)
[reply] 25

[ask] Any idea what IC50 was measured for CCc1c(F)ccc2cc(O)cc(-c3ncc4c(N5CCCC6(C5)NC(=O)NC6=O)nc(N5CC(N)C5)nc4c3F)c12 (stereo not drawn) ?
[reply] 3

[ask] Give the measured IC50 of CCc1c(F)ccc2cc(O)cc(-c3ncc4c(N5CC6CCC(COC(=O)N(C)C)(C6)C5)nc(OC[C@@]56CCCN5C[C@H](F)C6)nc4c3F)c12 (stereo partly drawn) .
[reply] 26

----------
# Target Entity: KRas^G12D (Homo sapiens, UniProt P01116, G12D)
# Construct: Biotinylated KRas (corresponding to amino acids 1-169, produced at Accelegan Inc.); biotin (biotinylated); purchased Accelegan Inc
# Sequence (P01116 1-169 isoform P01116-2 G12D): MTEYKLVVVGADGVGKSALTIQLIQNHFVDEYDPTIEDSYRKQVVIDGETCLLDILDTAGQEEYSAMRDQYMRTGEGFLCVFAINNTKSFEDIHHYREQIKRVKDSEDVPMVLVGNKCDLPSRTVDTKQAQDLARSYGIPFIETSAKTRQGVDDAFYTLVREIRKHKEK
# Experimental Details: KRas binding assay (TR-FRET tracer displacement), KRas G12D
# strict inequality: IC50 < 800 nM yields fulfilled, everything else yields not fulfilled

[ask] In the record for CCc1c(F)ccc2cc(O)cc(-c3ncc4c(NCc5cc(C(=O)N(C)C)n(CC#N)n5)nc(OC[C@@]56CCCN5C[C@H](F)C6)nc4c3F)c12 , is IC50 less than 800 nM?
[reply] fulfilled

[ask] Here's an entry: CCc1c(F)ccc2cc(O)cc(-c3ncc4c(NCc5cn(C(=O)N(C)C)nc5NC(C)=O)nc(OC[C@@]56CCCN5C[C@H](F)C6)nc4c3F)c12 . Is its IC50 below 800 nM?
[reply] fulfilled

[ask] is_below(IC50, 800 nM) for C[C@@]1(O)CCCN(c2nc(OCC34CCCN3CCC4)nc3c(F)c(-c4c(C5CC5)c(Cl)cc5[nH]ncc45)ncc23)C1 ?
[reply] fulfilled

[ask] Decide: IC50 of O[C@@H]1C[C@H]2C[C@@H]1CN(c1nc(OC[C@@]34CCCN3C[C@H](F)C4)nc3c(F)c(-c4cccc5ccccc45)ncc13)C2 strictly below 800 nM?
[reply] not fulfilled

[ask] # check: IC50 < 800 nM for CCc1c(F)ccc2cc(O)cc(-c3ncc4c(N5CCC[C@@](C)(O)C5)nc(OC[C@@]56CCCN5[C@H](CNS(=O)(=O)N(C)C)CC6)nc4c3F)c12
[reply] fulfilled

[ask] Please let me know if Cc1cccc2cc3[nH]ncc3c(-c3ncc4c(N5CCCC6(CNS(=O)(=O)N6)C5)nc(OCC56CCCN5CCC6)nc4c3F)c12 (centres unmarked) shows IC50 below 800 nM.
[reply] fulfilled

[ask] Does the reported IC50 of CCc1c(F)ccc2cc(O)cc(-c3ncc4c(N5CC6CCC(CO)(C5)C6(F)F)nc(OC[C@@]56CCCN5C[C@H](F)C6)nc4c3F)c12 (some centres unmarked) stay below 800 nM?
[reply] fulfilled

[ask] Find out if reported IC50 for CCc1c(F)ccc2cc(O)cc(-c3ncc4c(N5CCC[C@H](c6ccnn6C)CC5)nc(OC[C@@]56CCCN5C[C@H](F)C6)nc4c3F)c12 is less than 800 nM
[reply] not fulfilled

[ask] Regarding CCc1c(F)ccc2cc(O)cc(-c3ncc4c(N5C[C@H]6CC[C@@]6(O)C5)nc(OC[C@@]56CCCN5C[C@H](F)C6)nc4c3F)c12 , kindly confirm whether its IC50 is beneath 800 nM.
[reply] fulfilled

[ask] For CCc1c(F)ccc2cc(O)cc(-c3ncc4c(NC56CCC(C#N)(CC5)CC6)nc(OC[C@@]56CCCN5C[C@H](F)C6)nc4c3F)c12 , is the recorded IC50 below the cut-off of 800 nM?
[reply] fulfilled

[ask] API: query returns whether the compound falls strictly under 800 nM in IC50. Query: O=C1CC2CN(c3nc(OCC45CCCN4CCC5)nc4c(F)c(-c5cccc6cccc(F)c56)ncc34)CCC2C(=O)N1 (centres unmarked)
[reply] not fulfilled

[ask] For this compound, is IC50 lower than 800 nM? C#Cc1c(F)ccc2cc(O)cc(-c3ncc4c(N5CCCC6(CCO6)C5)nc(OC[C@@]56CCCN5C[C@H](F)C6)nc4c3F)c12 (some centres unmarked)
[reply] fulfilled

[ask] Consider CCc1c(F)ccc2cc(O)cc(-c3ncc4c(N5CC6(CO)CC(C7CC7)(C5)C6)nc(OC[C@@]56CCCN5C[C@H](F)C6)nc4c3F)c12 . Does its IC50 lie strictly below 800 nM?
[reply] not fulfilled

[ask] Determine whether this compound shows IC50 lower than 800 nM (ties excluded): CCc1c(F)ccc2cc(O)cc(-c3ncc4c(N5CC6C(=O)NC(=O)C6C5)nc(OC[C@]56CCCN5[C@H](COC(=O)N(C)C)CC6)nc4c3F)c12 (some centres unmarked)
[reply] not fulfilled

[ask] Strictly below 800 nM in IC50? Cc1cc2[nH]cnc2c(-c2ncc3c(N4CCC[C@@](C)(O)C4)nc(OCC45CCCN4CCC5)nc3c2F)c1C
[reply] not fulfilled

[ask] Determine if Cc1cccc2c(-c3ncc4c(N5C[C@@H]6C[C@H](C5)[C@H](O)C6)nc(OC[C@@]56CCCN5C[C@H](F)C6)nc4c3F)cc(O)cc12 shows IC50 strictly lower than 800 nM.
[reply] fulfilled

[ask] Could you please tell me whether IC50 recorded for CCc1c(F)ccc2cc(O)cc(-c3ncc4c(N5CCC(N6CCCCS6(=O)=O)C5)nc(OC[C@@]56CCCN5C[C@H](F)C6)nc4c3F)c12 (some centres unmarked) is less than 800 nM?
[reply] not fulfilled

[ask] IC50 under 800 nM? Item: C=C1CN2CC(=C)CC2(COc2nc(N3C[C@@H]4C[C@H](C3)[C@H](O)C4)c3cnc(-c4cc(O)cc5ccc(F)c(CC)c45)c(F)c3n2)C1
[reply] fulfilled

[ask] Hello, I'm reviewing records and need to know if IC50 of Cc1c(O)cc2ccccc2c1-c1ncc2c(N3C[C@@H]4C[C@H](C3)[C@H](O)C4)nc(OC[C@@]34CCCN3C[C@H](F)C4)nc2c1F is below 800 nM. Could you check?
[reply] fulfilled

[ask] Is the reported IC50 for CCc1c(F)ccc2cc(O)cc(-c3ncc4c(N5CC=CCC5)nc(OC[C@@]56CCCN5C[C@H](F)C6)nc4c3F)c12 strictly below 800 nM?
[reply] fulfilled

[ask] Is 800 nM strictly greater than the compound's reported IC50? compound: CCc1c(F)ccc2cc(O)cc(-c3ncc4c(NCc5cc(C(=O)N(C)C)nn5C5CCS(=O)(=O)C5)nc(OC[C@@]56CCCN5C[C@H](F)C6)nc4c3F)c12 (single isomer, unassigned)
[reply] fulfilled

[ask] Would you kindly verify if IC50 of CCc1c(F)ccc2cc(O)cc(-c3ncc4c(N5CC6CCC(COCCO)(C6)C5)nc(OC[C@@]56CCCN5C[C@H](F)C6)nc4c3F)c12 (some centres unmarked) is strictly less than 800 nM?
[reply] fulfilled
